- System: MDA-MB-468 spheroids with HUVEC/MSC, viability
- Protocol: Anticancer human tumor MDA-MB-468 cell line growth inhibition [PI3K]; active = viability on the fitted dose curve at most 10% of control; inactive = the rest;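 note: spheroids exposed to agents for seven days before readout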
- Condition: second compound 0.01 µM; first compound 0.0316 µM
# valid calls are Yes = active, No = inactive; nothing else

These recorded examples may help you get a feel for the data.
CC(Cn1ccc(-c2ccc(C#N)c(Cl)c2)n1)NC(=O)c1cc(C(C)O)[nH]n1 (stereo unspecified) + COc1c(OCCCN2CCOCC2)ccc2c3n(c(=NC(=O)c4cnc(N)nc4)nc12)CCN3	No
CC(C)NCC(C(=O)N1CCN(c2ncnc3c2C(C)CC3O)CC1)c1ccc(Cl)cc1 (stereo unspecified) + COc1c(OCCCN2CCOCC2)ccc2c3n(c(=NC(=O)c4cnc(N)nc4)nc12)CCN3	No
CC(C)n1nc(-c2ccc3oc(N)nc3c2)c2c(N)ncnc21 + CC(Nc1ccc2c(c1)OCCn1cc(N3C(=O)OCC3C(F)F)nc1-2)C(N)=O	No
CC1(C)CCC(Nc2ncc(C(F)(F)F)c(-c3c[nH]c4c(P(C)(C)=O)c(C#N)ccc34)n2)CN1 (stereo unspecified) + COc1c(OCCCN2CCOCC2)ccc2c3n(c(=NC(=O)c4cnc(N)nc4)nc12)CCN3	Yes
Cn1ncc(Cl)c1-c1cc(C(=O)NC(CN)Cc2cccc(F)c2)sc1Cl (stereo unspecified) + CC(Nc1ccc2c(c1)OCCn1cc(N3C(=O)OCC3C(F)F)nc1-2)C(N)=O	No

Now examine the next entry.
Request: I would be grateful if you could indicate the recorded call for CC(C)NCC(C(=O)N1CCN(c2ncnc3c2C(C)CC3O)CC1)c1ccc(Cl)cc1 (stereo unspecified) + CC(Nc1ccc2c(c1)OCCn1cc(N3C(=O)OCC3C(F)F)nc1-2)C(N)=O .
Result: No
